Test system: CRL-7250
procedure-summary: Cytotoxic Profiling of Annotated Libraries Using Quantitative High-Throughput Screening (AID 1296008); note: % is set by controls: 0 for no effect and ±100 for the full control effect; nearly all actives have a fitted effect of over 60% in size
conditions-used: Five cell lines viability, CellTiter-Glo ATP luminescence, 48-72 h; stronger effect = lower value
Results filed as inconclusive are left out.
experimental-endpoint: max response (%)
Return type: number; implicit unit %.

Quick check: max response of `CC(C)c1cccc2c(-c3ccccc3)cc(-c3ccc(-c4ccc(C(=O)O)cc4)[nH]3)nc12` ? -17.4

For `C1CCC[C@H]2CCCN3CC[C@@H](CCCCCC[C@@H]4CCCN5CC[C@@H](CC1)O[C@@H]45)O[C@@H]23` then? 0.135

For COC(=O)CC(O)C1OC(c2ccccc2)C(O)C1O (stereo not given) then? -3.81

For C=C1CCC2C(C)(COC(C)=O)CCCC2(C)C1CCC(C)CC(=O)O (stereo not given) then? -3

For COC1CC(OC2CCC3(C)C(=CCC4C3C(OC(C)=O)C(OC(=O)/C=C/c3ccccc3)C3(C)C(C(C)O)CCC43O)C2)OC(C)C1OC1CC(OC)C(OC2OC(C)C(OC3OC(CO)C(O)C(O)C3O)C(OC)C2O)C(C)O1 (stereo not given) then? 2.68

For CC1(C=O)CC[C@]2(C(=O)O[C@@H]3O[C@H](CO)[C@@H](O)[C@H](O)[C@H]3O)CC[C@]3(C)C(=CCC4[C@@]5(C)C[C@H](O)[C@H](O[C@@H]6OC[C@@H](O)[C@H](O)[C@H]6O)[C@@](C)(CO)C5CC[C@]43C)C2C1 (stereo not given in full) then? -5.25

For `O=S(=O)(c1ccccc1)c1cnc2c(N3CCNCC3)cccc2c1` then? 1.33

For `COc1ccccc1Oc1ccc(N(Cc2cccnc2)S(=O)(=O)CC(F)(F)F)cc1` then? -7.01

For `COC(=O)CCc1cc2ccoc2c(OC)c1O[C@@H]1O[C@H](CO)[C@@H](O)[C@H](O)[C@H]1O` then? -7.38

For `O=C(Nc1ccc(S(=O)(=O)Nc2ccccc2Cl)c(Cl)c1)c1ccccn1` then? 0.561

For CC12CCC(OC3OC(CO)C(O)C(OC4OC(CO)C(O)C(O)C4O)C3O)CC1CCC1C2CCC2(C)/C(=C3/COC(=O)C3)CCC12O (stereo not given) then? -8.75

For `CC(C)CCC[C@@H](C)[C@H]1CC[C@H]2[C@@H]3CC(=O)[C@H]4C[C@@H](O)CC[C@]4(C)[C@H]3CC[C@]12C` then? -2.74

For CC1(C)CCCC2(C)C1CC=C1C(=O)OC(O)C12O (stereo not given) then? -7.54

For `C=C1C(=O)O[C@H](CCC)[C@H]1C(=O)O` then? 3.05

For OCC(CO[C@@H]1O[C@H](CO)[C@@H](O)[C@H](O)[C@H]1O)c1ccc2c(c1)OCO2 (stereo not given in full) then? 0.071

For CC1(C)CC[C@]2(C(=O)O[C@@H]3O[C@H](CO[C@@H]4O[C@H](CO)[C@@H](O)[C@H](O)[C@H]4O[C@@H]4O[C@H](CO)[C@H](O)[C@H](O)[C@H]4O)[C@@H](O)[C@H](O[C@@H]4O[C@H](CO)[C@@H](O)[C@H](O)[C@H]4O)[C@H]3O)CC[C@]3(C)C(=CCC4[C@@]5(C)CC[C@H](O[C@@H]6OC[C@@H](O)[C@H](O)[C@H]6O)[C@@](C)(C(=O)O)C5CC[C@]43C)[C@@H]2C1 (stereo not given in full) then? -1.09

For `C/C=C/c1ccc2oc(-c3ccc(O)c(OC)c3)c(C)c2c1` then? -27.9

For `C=C1C[C@]23C[C@H]1CC[C@H]2[C@@]12CC[C@H](O)[C@@](C)(C(=O)O1)[C@H]2[C@@H]3C(=O)O` then? -11.3

For `COc1ccc(CCO[C@@H]2O[C@H](CO[C@@H]3OC[C@H](O)[C@H](O)[C@H]3O)[C@@H](O)[C@H](O)[C@H]2O)cc1` then? -3.54

For Cc1nc(C)c(-c2ccc(C3CCC(CC(=O)O)CC3)cc2)nc1C(N)=O (stereo not given) then? 0.3

For C[C@]12C=C[C@@]3(CCC4[C@](C)(CO)CCC[C@@]4(C)C3CC1)C2 (stereo not given in full) then? -1.08

For CC1C(=O)CC2C3CCC(C(=O)O)C12CC3(C)CO (stereo not given) then? -22.2

For `CC(C)(C)NC(=O)[C@@H](c1cccnc1)N(C(=O)c1ccco1)c1ccc(C(C)(C)C)cc1` then? 4.34

For `c1ccc(-c2ncc(CN3CCN(c4ncccn4)CC3)[nH]2)cc1` then? -0.931

For `Cn1ncnc1COc1nn2c(-c3cc(F)ccc3F)nnc2cc1C(C)(C)C` then? -15.8

For C=CC1(C)C=C2CCC3C(C)(C)C(O[C@@H]4O[C@@H](CO)[C@H](O)[C@H]4O)CCC3(C)C2CC1O[C@@H]1O[C@H](C)[C@H](O)[C@H](O)[C@H]1O (stereo not given in full) then? -0.496

For `c1ccc(N2CCN(CCc3nn[nH]n3)CC2)cc1` then? 4.82

For `C=C[C@H]1[C@H](O[C@@H]2O[C@H](CO)[C@@H](O)[C@H](O)[C@H]2O)OC=C(C(=O)OC)[C@H]1CC(=O)O` then? -13.3

For `COc1cc(/C=C/C(=O)OC[C@H]2O[C@@](CO)(O[C@H]3O[C@H](CO)[C@@H](O)[C@H](O)[C@H]3O)[C@@H](OC(=O)/C=C/c3ccc(O)c(OC)c3)[C@@H]2O)ccc1O` then? -25.3

For C[C@@H]1CC[C@]2(C(=O)O)CC[C@]3(C)C(=CCC4[C@@]5(C)C[C@@H](O)[C@H](O)[C@@](C)(CO)C5CC[C@]43C)C2[C@]1(C)O (stereo not given in full) then? -3.26

---

Tested on: NIH3T3
procedure-summary: Cytotoxic Profiling of Annotated Libraries Using Quantitative High-Throughput Screening (AID 1296008); note: % is set by controls: 0 for no effect and ±100 for the full control effect; nearly all actives have a fitted effect of over 60% in size
conditions-used: Five cell lines viability, CellTiter-Glo ATP luminescence, 48-72 h; stronger effect = lower value
Records with an inconclusive call do not appear.
experimental-endpoint: max response (%)
Return type: number; implicit unit %.

API: value(readout= max response, system= NIH3T3, query= C=CC(C)(C)C12C=C(OC)C(=O)N3C(C(C)C)C(=O)NC31N(OC)c1ccccc12 (stereo not drawn) ) -14.5

For CC(CCC1(O)OC2CC3C4CCC5CC(O[C@@H]6O[C@H](CO)[C@@H](O)[C@H](O)[C@H]6O[C@@H]6O[C@@H](C)[C@H](O)[C@@H](O)[C@H]6O)C(O)CC5(C)C4CCC3(C)C2C1C)CO[C@@H]1O[C@H](CO)[C@@H](O)[C@H](O)[C@H]1O (stereo partly drawn) then? -21

For COC(=O)/C=C/C12COC(C)(C)C1C(O)C(OC(C)=O)C1(C)C2CCC2(C)C(c3ccoc3)OC(=O)C3OC321 (stereo not drawn) then? -16.9

---

System: CAOV3
procedure-summary: Primary qHTS to identify gynecologic anti-cancer compounds using libraries of approved drugs and bioactive compounds (AID 1345084); note: % is set by controls: 0 for no effect and ±100 for the full control effect; nearly all actives have a fitted effect of over 55% in size
conditions-used: Gynecologic cancer cell panel viability, ATPlite luminescence, 48 h; series mostly up to 57.5 µM
Results filed as inconclusive are left out. Activity calls are given as the source filed them. Calls come from the whole dose curve; as a rule, active = well fitted cell-killing curve with a large enough effect; inconclusive = small, poorly fitted or top-dose-only effect, or effect the other way; inactive = flat fitted curve, though single readings scatter.
experimental-endpoint: activity change, negative = cytotoxicity

Quick check: activity change, negative = cytotoxicity of CC1OC(O[C@H]2CC[C@@]3(C)C(CC[C@]4(C)C3CC=C3C5CC(C)(C)CC[C@]5(C(=O)OC5OC(CO)C(OC6OC(COC7OCC(O)C(O)C7O)C(O)C(O)C6O)C(O)C5O)CC[C@]34C)C2(C)C)C(O)C(O)C1OC1OCC(OC2OCC(O)C(O)C2O)C(O)C1O (stereo not given in full) ? 3.53% [at 6.55 µM] (inactive)

For C/C=C(\C)C(=O)OCC1OC(OC2OC(COC(=O)/C(C)=C/C)C(OC3OC(CO)C(OC(=O)/C(C)=C/C)C(OC(=O)/C(C)=C/C)C3O)C(O)C2O)C(O)C(O)C1OC1OC(CO)C(OC(=O)/C(C)=C/C)C(OC(=O)/C(C)=C/C)C1O (stereo not given) then? -7.6% [at 11.6 µM] (inactive)

For COC1CC(OC2CCC3(C)C(=CCC4C3C(OC(C)=O)C(OC(=O)/C=C/c3ccccc3)C3(C)C(C(C)O)CCC43O)C2)OC(C)C1OC1CC(OC)C(OC2OC(C)C(OC3OC(CO)C(O)C(O)C3O)C(OC)C2O)C(C)O1 (stereo not given) then? 1.34% [at 6.55 µM] (inactive)

For CC1(C=O)CC[C@]2(C(=O)O[C@@H]3O[C@H](CO)[C@@H](O)[C@H](O)[C@H]3O)CC[C@]3(C)C(=CCC4[C@@]5(C)C[C@H](O)[C@H](O[C@@H]6OC[C@@H](O)[C@H](O)[C@H]6O)[C@@](C)(CO)C5CC[C@]43C)C2C1 (stereo not given in full) then? -2.27% [at 11.6 µM] (inactive)

For `CC(=O)O[C@H]1C(=O)[C@@]2(C)[C@H]([C@H](OC(=O)c3ccccc3)[C@]3(O)C[C@H](OC(=O)[C@H](O)[C@@H](NC(=O)c4ccccc4)c4ccccc4)C(C)=C1C3(C)C)[C@]1(OC(C)=O)CO[C@@H]1C[C@@H]2O` then? -17.1% [at 11.6 µM] (inactive)

These entries and their values trace back to PubChem BioAssay (NCATS).
